FYI, the data here is from ChEMBL document CHEMBL1949566.

organism: Rattus norvegicus; test: Displacement of [125I]angiotensin 2 from angiotensin 2 receptor type 1 in Sprague-Dawley rat adrenal cortex membranes at 10 uM after 60 mins by gamma counting; format: cell membranes; settings: Membrane
quantity: inhibition (%)

Here are 3 compounds together with their reported answers.
[
  {
    "smilesRecord": "CCCCc1nc(C)c(CCC(=O)O)c(=O)n1Cc1ccc(-c2ccccc2-c2nnn[nH]2)cc1",
    "valueUnit": "%",
    "observedResult": 27.9
  },
  {
    "smilesRecord": "CCCCc1nc(C)c(CC(=O)N2CCCC2)c(=O)n1Cc1ccc(-c2ccccc2-c2nnn[nH]2)cc1",
    "valueUnit": "%",
    "observedResult": 76.7
  },
  {
    "smilesRecord": "CCCCc1nc(C)c(CC(=O)N2CCCCC2)c(=O)n1Cc1ccc(-c2ccccc2-c2nnn[nH]2)cc1",
    "valueUnit": "%",
    "observedResult": 71.7
  }
]

I: CCCCc1nc(C)c(CC(=O)N(C)C)c(=O)n1Cc1ccc(-c2ccccc2-c2nnn[nH]2)cc1
II: CCCCc1nc(C)c(CC(=O)O)c(=O)n1Cc1ccc(-c2ccccc2-c2nnn[nH]2)cc1
Ask | Endpoint returns the identifier whose inhibition is numerically larger, either I or II . Write down the label of the entry you select.
Reply | I

----------
experiment: Cmax in Sprague-Dawley rat at 3 mg/kg, po; type: ADME, organism-based; set-up: dose 3 mg/kg, route oral; settings: in vivo
quantity: Cmax (ng/mL)
Just the number in ng/mL, nothing appended.

Ask | Which measured Cmax value corresponds to `CCCCc1nc(C)c(CC(=S)N(C)C)c(=O)n1Cc1ccc(-c2ccccc2-c2nnn[n-]2)cc1.O.O.O.[K+]` ?
Reply | 242

----------
assay: AUC in Sprague-Dawley rat at 3 mg/kg, po; type: ADME, organism-based; set-up: dose 3 mg/kg, route oral; details: plasma
quantity: AUC (ng·h/mL)
# output: bare number, implied unit ng·h/mL

Ask | Would you mind telling me what AUC value was observed for `CCCCc1nc(C)c(CC(=S)N(C)C)c(=O)n1Cc1ccc(-c2ccccc2-c2nnn[n-]2)cc1.O.O.O.[K+]` ?
Reply | 678

----------
Known ED50 of a selection of compounds
system: Rattus norvegicus; experiment: Antihypertensive activity in iv dosed pithed rat model assessed as inhibition of angiotensin 2-induced pressor response by gould pressure transducer-coupled grass polygraphy; type: functional
State just the number; it will be interpreted in mg/kg.

[
  {
    "compound": "CCCCc1nc(C)c(CC(=O)N2CCC[C@H]2C(=O)OC)c(=O)n1Cc1ccc(-c2ccccc2-c2nnn[nH]2)cc1",
    "measuredTarget": "Rattus norvegicus",
    "quantity": "ED50",
    "observedResult": 0.043
  },
  {
    "compound": "CCCCc1nc(C)c(CC(=O)N(C)C)c(=O)n1Cc1ccc(-c2ccccc2-c2nnn[nH]2)cc1",
    "measuredTarget": "Rattus norvegicus",
    "quantity": "ED50",
    "observedResult": 0.018
  }
]

Ask | State its ED50 on Rattus norvegicus: `CCCCc1nc(C)c(CC(=S)N2CCCCCC2)c(=O)n1Cc1ccc(-c2ccccc2-c2nnn[nH]2)cc1`
Reply | 0.034

Ask | Now the same for `CCCCc1nc(C)c(CC(=O)N(CC)CC)c(=O)n1Cc1ccc(-c2ccccc2-c2nnn[nH]2)cc1`
Reply | 0.089

Ask | Do the same for `CCCCc1nc(C)c(CC(=O)N2CCOCC2)c(=O)n1Cc1ccc(-c2ccccc2-c2nnn[nH]2)cc1` please
Reply | 0.018

Ask | And the next one, `CCCCc1nc(C)c(CCC(=O)N2CCOCC2)c(=O)n1Cc1ccc(-c2ccccc2-c2nnn[nH]2)cc1` ?
Reply | 0.143

Ask | Also need `CCCCc1nc(C)c(CC(=S)N(C)C)c(=O)n1Cc1ccc(-c2ccccc2-c2nnn[nH]2)cc1` , thanks.
Reply | 0.018
